- Assayed System: T1, beta-lactoglobulin (β-LG) (Bos taurus (cow)?, UniProt P02754 17-178)
- T1 sequence: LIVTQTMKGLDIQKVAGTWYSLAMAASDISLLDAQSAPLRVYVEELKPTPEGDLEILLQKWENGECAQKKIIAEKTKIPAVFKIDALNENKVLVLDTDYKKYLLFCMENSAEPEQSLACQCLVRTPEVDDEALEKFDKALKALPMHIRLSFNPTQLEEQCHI
- Method Notes: electrochemical (chronoamperometric) titration on gold screen-printed electrode, immobilized β-LG, streptavidin-HRP/TMB; 2 mM MgCl2 in BS-LG selection buffer; aptamer 40-100 nM; Kd read as inflection point; Kd assay: BS-LG, 50 mM Tris pH 7.4, 150 mM NaCl, 2 mM MgCl2 (wash and HRP step; aptamer diluent not stated), 30 min incubation, temperature not stated
- Stated Conditions: protein: commercial; chain copies: 2; label: 5'-biotin
Parameter: Kd (nM)
Please respond with the number in nM and leave the unit unwritten.

Quick one: Kd of BLG14 aptamer (ssDNA) DNA: GACGATCGGACCGCAGTACCCACCCACCAGCCCCAACATCATGCCCATCCGTGTGTG ?
56

All values here come from paper PMC9568494.
